Each entry below carries its reported Plant response rating: Foxtail, Green.
Tested on: foxtail, green (green foxtail, Setaria viridis)
assay-summary: Test D pre-/postemergence: foxtail, green
Assay type: in vivo
assay-context: Postemergence, 62 g ai/ha; scale 0 to 100 (0 no effect, 100 complete control)

Sample answers from the record:
> print(dat)
                                   compound  result
1  Cc1nn(-c2ccc(C(F)(F)F)cn2)nc1Cc1cccc(C(F)(F)F)c1 [Compound 106]      20
2  CCc1nn(-c2ccc(C(F)(F)F)cc2)nc1Cc1ccnc(C(F)(F)F)c1 [Compound 155]      70
3  CCOc1nn(-c2ccc(F)cc2)nc1Cc1ccnc(C(F)(F)F)c1 [Compound 196]      85
4  Cc1nn(-c2ccc(C(F)(F)F)cc2)nc1Oc1ccnc(C(F)(F)F)c1 [Compound 120]      80
5  FC(F)(F)COc1nn(-c2ccc(C(F)(F)F)cc2)nc1Cc1ccnc(C(F)(F)F)c1 [Compound 14]      25

Field: next compound
## Input Respond only with Plant response rating: Foxtail, Green recorded for COc1nn(-c2ccc(C(F)(F)F)cc2)nc1Cc1ccnc(C(F)(F)F)c1 [Compound 15]
## Output 80

---

System: ragweed (common ragweed, Ambrosia elation)
assay-summary: Test C pre-/postemergence: ragweed
Assay type: in vivo
assay-context: Preemergence, 250 g ai/ha; scale 0 to 100, 0 no effect, 100 complete control
Each entry below carries its reported Plant response rating, Ragweed.
Form field (numeric): enter value without unit.

Sample answers from the record:
> print(dat)
                              sample.smiles  measured.number
1  CCOc1nn(-c2ccc(C(F)(F)F)cc2)nc1Cc1ccnc(C(F)(F)F)c1               30
2  CCc1nn(-c2ccc(F)c(F)c2)nc1Oc1ccnc(C(F)(F)F)c1               15
3  CCc1nn(-c2ccc(C(F)(F)F)c(F)c2)nc1Oc1ccnc(C(F)(F)F)c1               95

Field: next compound
## Input Respond only with Plant response rating, Ragweed recorded for `CCOCc1nn(-c2ccc(F)cc2)nc1Oc1ccnc(C(F)(F)F)c1`
## Output 35

---

Each entry below carries its reported Plant response rating, Sedge, Umbrella.
Tested on: sedge, umbrella (small-flower umbrella sedge, Cyperus difformis)
assay-summary: Test C flooded paddy test: sedge, umbrella
Type: in vivo
assay-context: Flood (flooded paddy test), 250 g ai/ha; visual rating after 13 to 15 days, scale 0 to 100 (0 no effect, 100 complete control)
Form field (numeric): enter value without unit.

Sample answers from the record:
> print(dat)
                                   compound  measured.number
1  Cc1nn(-c2ccccn2)nc1C(=O)c1cccc(C(F)(F)F)c1 [Compound 60]                0
2  Cc1nn(-c2ccc(C(F)(F)F)cn2)nc1Cc1cccc(C(F)(F)F)c1 [Compound 106]               80
3  Cc1nn(-c2ccc(C(F)(F)F)cc2)nc1Cn1cc(C(F)(F)F)cn1 [Compound 32]                0
4  Cc1nn(-c2ccc(C(F)(F)F)cc2)nc1Oc1ccnc(OC(F)F)c1 [Compound 48]               45
5  Cc1nn(-c2ccc(C(F)(F)F)cn2)nc1Oc1ccnc(C(F)(F)F)c1 [Compound 23]               90

## Input Respond only with Plant response rating, Sedge, Umbrella recorded for Cc1nn(-c2ccc(C(F)(F)F)cc2)nc1Oc1cncc(C(F)(F)F)c1 [Compound 37]
## Output 0

## Input Respond only with Plant response rating, Sedge, Umbrella recorded for Cc1nn(-c2ccc(F)cc2)nc1Oc1cccc(C(F)(F)F)c1 [Compound 98]
## Output 80

Hello, the source for this data is patent US9302999B2, in case you need it.
